B1: library; a variant is named by its letters at N, in order (parent)
chain: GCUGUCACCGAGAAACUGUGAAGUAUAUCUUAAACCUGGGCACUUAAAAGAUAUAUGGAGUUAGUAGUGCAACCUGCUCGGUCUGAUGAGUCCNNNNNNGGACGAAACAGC

Variants of: B1
Assay: FACS-Seq fitted mean relative fluorescence mCherry/BFP without ligand (log10 relative fluorescence); HEK293T; ligand: cyclic di-GMP (c-di-GMP-II aptamer); higher = higher reporter protein expression
Settings: ligand present: no
Overview of reported FACS-Seq fitted mean (log10) across a group of variants:
Give only the figure.

I'd like to know its FACS-Seq fitted mean (log10). The variant in question is `GUCCAA`
0.102

# input variant: `CUAUAA` ; wanted: its FACS-Seq fitted mean (log10)
-0.473

Which value of FACS-Seq fitted mean (log10) has been reported for `AGCCUA` in the records?
-0.0368

Could you tell me which FACS-Seq fitted mean (log10) is on file for `CCGGAA` ?
-0.512

Could you share which FACS-Seq fitted mean (log10) value was measured for `ACAUUG` ?
-0.689

The reported numbers originate from the supplement of paper PMC6757056.
